Target: CDK2/cyclinE(h) (Homo sapiens)
Construct: purchased Caliper Life Sciences
Experiment: Other kinases, single-concentration inhibition (Table 3)
Type: biochemical
Conditions: 1 μM
Would you kindly list % inhibition CDK2/cyclinE(h) for each of these compounds?
Numbers only, in %.

Would you please look over these solved cases?
| compound | % inhibition CDK2/cyclinE(h) (%) |
| --- | --- |
| CN1CCN(c2ccc3cc2OCCS[C@@H]2C[C@@H]4C[C@H]2[C@@H](Nc2nc(ncc2F)N3)[C@H]4C(N)=O)CC1 | 133 |
| CC[C@@H]1C[C@@H]2/C=C\COc3cccc(c3)Nc3ncc(F)c(n3)N[C@H]2[C@H]1C(N)=O (single isomer, unassigned) | 107 |
| NC(=O)[C@H]1[C@H]2C[C@H]3[C@H]1Nc1nc(ncc1F)Nc1cccc(c1)NC(=O)CS[C@@H]3C2 | 60 |
| NC(=O)[C@H]1[C@H]2C[C@H]3[C@H]1Nc1nc(ncc1F)Nc1cccc(c1)C(=O)CS[C@@H]3C2 | 92 |
| CN1CCN(c2ccc3cc2NC(=O)CS[C@@H]2C[C@@H]4C[C@H]2[C@@H](Nc2nc(ncc2F)N3)[C@H]4C(N)=O)CC1 | 100 |
| C=C[C@@H]1C[C@@H]2/C=C/COc3cccc(c3)Nc3ncc(F)c(n3)N[C@H]2[C@H]1C(N)=O (single isomer, unassigned) | 114 |

For every listed record, write down its % inhibition CDK2/cyclinE(h).
1. NC(=O)[C@H]1[C@H]2C[C@H]3[C@H]1Nc1nc(ncc1F)Nc1cccc(c1)OCCS[C@@H]3C2
2. CC[C@@H]1C[C@@H]2CCCOc3cccc(c3)Nc3ncc(F)c(n3)N[C@H]2[C@H]1C(N)=O (single isomer, unassigned)
3. NC(=O)[C@H]1[C@H]2C[C@H]3[C@H]1Nc1nc(ncc1F)Nc1cccc(c1)CSS[C@@H]3C2
4. N#Cc1ccc2cc1NC(=O)CS[C@@H]1C[C@@H]3C[C@H]1[C@@H](Nc1nc(ncc1F)N2)[C@H]3C(N)=O

Reply:
[69, 109, 23, 15]
